# test.method.notes: inhibitors of TNFa-induced NFkB p65 translocation, primary screen, imaging, HUVEC, MLSMR starter and 10KST1 sets (AID 438);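 further: compound added about 3h40 before a 20 min TNFalpha stimulation; signal is the nuclear over cytoplasmic p65 intensity ratio per well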
# condition.description: HUVEC TNFa-induced p65 nuclear translocation; at 2 µM, hits give high values, 0% TNFa-plus-vehicle, 100% no-TNFa wells
Attribute: inhibition
readout: inhibition (%)

# structure.string, readout, test.result
rows = [
    ("O=C(Cn1cnc2sc(-c3ccccc3)cc2c1=O)N1CCOCC1", "inhibition", 6.9),
    ("CCOC(=O)Nc1c(C(=O)OC)[nH]c2cccc(OC)c12", "inhibition", -0.5),
    ("COc1ccc(CCNC(=O)c2nc3ncccn3n2)cc1OC", "inhibition", -2.3),
    ("COc1cccc(C(=O)Nc2cccc(C(=O)N3CCOCC3)c2)c1", "inhibition", 1.6),
    ("COc1ccc(S(=O)(=O)NC2CCCCC2)c(C)c1C", "inhibition", 8.4),
    ("COc1ccc(-c2cn3cc(C)ccc3n2)cc1OC", "inhibition", -10.5),
]

----------
// reported fluorescence slope for each item listed
# subject.of.test: Muscarinic acetylcholine receptor M4 (Homo sapiens) (UniProt P08173)
# Sequence (P08173 whole entry, looked up): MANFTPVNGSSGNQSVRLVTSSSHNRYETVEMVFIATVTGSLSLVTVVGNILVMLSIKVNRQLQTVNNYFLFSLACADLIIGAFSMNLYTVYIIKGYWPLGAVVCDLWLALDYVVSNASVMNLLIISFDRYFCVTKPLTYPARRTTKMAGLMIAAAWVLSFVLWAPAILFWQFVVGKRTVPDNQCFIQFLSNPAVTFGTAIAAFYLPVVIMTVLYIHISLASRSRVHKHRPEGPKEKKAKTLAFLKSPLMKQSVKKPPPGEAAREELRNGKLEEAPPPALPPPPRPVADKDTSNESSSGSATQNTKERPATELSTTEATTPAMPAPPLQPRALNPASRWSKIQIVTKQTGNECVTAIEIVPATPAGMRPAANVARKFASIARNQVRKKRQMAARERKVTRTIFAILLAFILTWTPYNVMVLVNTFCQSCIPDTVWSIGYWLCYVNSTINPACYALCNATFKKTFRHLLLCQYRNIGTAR
# test.method.notes: M4-linked GIRK flux change, two-sided – cell-based, HEK293 M4/GIRK, thallium flux, BTC-AM, M4 allosteric agonist project, primary screen (AID 625);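 further: thallium influx through GIRK channels coupled to M4 in HEK293 cells with BTC-AM dye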
# condition.description: at 10 µM, actives lie on both sides
readout: fluorescence slope

# molecule, readout, test.result
rows = [
    ("Nc1nc(-c2ccccc2Br)cs1", "fluorescence slope", 0.00573),
    ("NS(=O)(=O)c1ccc(NCc2c(F)cccc2Cl)cc1", "fluorescence slope", 0.00288),
    ("CCCC(C)C(=O)Nc1ccc(C(N)=O)cc1 (configuration not stated)", "fluorescence slope", 0.00544),
    ("Cc1cc(=O)n2[nH]c(COc3ccccc3)nc2n1", "fluorescence slope", 0.00471),
    ("COc1cccc(-c2cc(C(=O)Nc3cc(C)n(Cc4ccc(Cl)cc4)n3)no2)c1", "fluorescence slope", 0.0105),
    ("COc1ccc(C(=O)NCCn2ccc3ccccc32)cc1", "fluorescence slope", 0.008),
    ("COc1cccc(C(=O)NCC(=O)n2nc(C)cc2C)c1", "fluorescence slope", 0.00505),
    ("COc1nc(N2CCOCC2)nc(-n2cccc2)n1", "fluorescence slope", 0.00492),
    ("CN(C(=O)c1c(Cl)nc2sccn12)C1CCCCC1", "fluorescence slope", 0.00592),
    ("COC(=O)c1ccccc1S(=O)(=O)N(Cc1cc2cc3c(cc2[nH]c1=O)OCO3)C1CCCCC1", "fluorescence slope", 0.00583),
    ("COC(=O)Cc1c(C)nc2nc(-c3ccccc3)[nH]n2c1=O", "fluorescence slope", 0.00459),
    ("COc1ccc(CCNS(=O)(=O)c2ccc3c(c2)CCN3C(=O)CCC(=O)O)cc1OC", "fluorescence slope", 0.00473),
]

----------
# test.method.notes: endothelial E-selectin expression blockers – imaging, HUVEC, immunofluorescence, MLSMR starter and 10KST1 sets, primary screen (AID 487);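 further: signal is fraction of cell area covered by stained E-selectin grains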
# condition.description: HUVEC TNFalpha-induced E-selectin immunofluorescence imaging, at 2 µM; hits give high values
Kind request: treat -30% as inclusive, so inhibition at -30% or higher is true, anything lower is false.

# compound, label
records = [
    ("OCC#CCSc1nnc(-c2ccccc2Br)o1", "false"),
    ("O=C(CSc1nc2ccc(Cl)cc2[nH]1)NCc1ccco1", "true"),
    ("CCOC(=O)Cc1nn2c(=O)cc(C)nc2s1", "true"),
    ("C1CCC2=NCCCN2CC1", "false"),
    ("COc1ccc(N(CC(=O)Nc2ccccc2SC)S(C)(=O)=O)cc1OC", "true"),
    ("C=CCC(NCc1ccco1)c1ccc(OC)cc1OC (centres undefined)", "false"),
    ("CCNc1nc(OC)nc(Oc2ccc(=O)n(-c3ccccc3)n2)n1", "false"),
    ("CCC1Oc2ccccc2N(CC(=O)Nc2ccc(OC)cc2OC)C1=O (centres undefined)", "false"),
    ("CS(=O)(=O)c1ncc(Cl)c(C(=O)Nc2ccc(N3CCOCC3)cc2)n1", "true"),
    ("Cc1nc(C)c(C(=O)C2=C(O)C(=O)N(CCN3CCOCC3)C2c2cccnc2)s1 (centres undefined)", "true"),
    ("COC(=O)Cn1c2c(c3cc(C)ccc31)CCCC2", "true"),
    ("O=C(NC1CCCCC1)C(c1ccco1)N(Cc1cccnc1)C(=O)C1COc2ccccc2O1 (centres undefined)", "true"),
    ("Cn1nc(-c2ccc(C(=O)NCC3CCCO3)cc2)c2ccccc2c1=O (centres undefined)", "true"),
    ("N#CC1=C(N)Oc2n[nH]c(-c3ccncc3)c2C1c1ccsc1 (centres undefined)", "true"),
    ("CCc1nnc(NC(=O)OCc2ccccc2)s1", "false"),
    ("Cc1ccc(-n2c(=O)c3sccc3n(CC(=O)NCc3ccco3)c2=O)cc1", "true"),
    ("CN(C)S(=O)(=O)c1ccc(C(=O)Nc2ccccc2C(=O)O)cc1", "true"),
    ("COCCOc1nc2ccccc2nc1C", "true"),
    ("O=C1CCC(=O)N1OCCCCOc1ccccc1", "true"),
    ("COc1ccc(CNC(=O)c2cc(-c3ccc(OC)c(OC)c3)on2)cc1", "true"),
    ("CCNC(=O)c1ccc(NS(=O)(=O)c2ccccc2)cc1", "false"),
    ("Cc1ccc(OC(=O)CCc2c(C)nc3ncnn3c2C)cc1", "false"),
    ("Cc1ccc2nc(NC(=O)C3CCN(S(=O)(=O)c4cccc5nsnc45)CC3)sc2c1", "true"),
]
